Listed here are sequences together with their documented PBM binding z-score.
Test system: LXRb:RXRa (NR concentration 270 nM, RXRa partner concentration 90 nM)
assay-method-text: PBM binding z-score (relative to random genomic background probes); higher = stronger binding; sequences stand for … in GC…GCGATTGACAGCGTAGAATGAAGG

- sequence-input: "CCTGCTAGGTCATGGTCAGCGAATCTACAGTATG"
  PBM binding z-score: 1.54
- sequence-input: "AATACAAGGTCATCGTAGGCCAGAGTACGCACAG"
  PBM binding z-score: 5.13
- sequence-input: "TAGCCGAGGTCATTCAGGGGCCAGTATAGAAAGC"
  PBM binding z-score: 5.52
- sequence-input: "GATACAGGGTCAGCTACAGGCCAGAGTATGGAAA"
  PBM binding z-score: 2.51
- sequence-input: "AATACAGGGTCATCTTAGGCCAGAGTACGCACAG"
  PBM binding z-score: 5.12
- sequence-input: "TCTCGGAGGACACTAAAGGTCAGAGCTCGACATC"
  PBM binding z-score: 3.73

---

System: THRa homodimer (NR concentration 90 nM)
assay-method-text: PBM binding z-score (relative to random genomic background probes); higher = stronger binding; sequences stand for … in GC…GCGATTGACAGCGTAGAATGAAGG
Listed here are sequences together with their documented PBM binding z-score.
assay-metric: PBM binding z-score

- sequence-input: "CGTCAAAGGTCAGAGAGGTCAGTGAATGCCGAGT"
  assay-metric: "PBM binding z-score"
  endpoint-value: 1.6
- sequence-input: "TTGCCTAGGTCATTGGGCCAGTATAGTACGCATC"
  assay-metric: "PBM binding z-score"
  endpoint-value: 1.05
- sequence-input: "GCTTACGGGTCCAAGGTTATAGCATGAATAGAAT"
  assay-metric: "PBM binding z-score"
  endpoint-value: 0.551
- sequence-input: "ATATGTAGGTTAGCTGGGGTCCTTCAGACTAGGC"
  assay-metric: "PBM binding z-score"
  endpoint-value: 0.268
- sequence-input: "ATATGTAGTTTATCGGGTCATTCAGTTTGCGCAT"
  assay-metric: "PBM binding z-score"
  endpoint-value: 3.09

---

System: PPARa:RXRa (NR concentration 270 nM, RXRa partner concentration 90 nM)
assay-method-text: PBM binding z-score (relative to random genomic background probes); higher = stronger binding; sequences stand for … in GC…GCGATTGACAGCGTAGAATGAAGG

- sequence-input: "CCGAGTAGGTTACGAGGGGTCATTCAGTGCGAAT"
  PBM binding z-score: 5.09
- sequence-input: "CCAACTAGGTCAAAGGACAGTGAAAGGCGACGTA"
  PBM binding z-score: 5.08
- sequence-input: "CGTCCAAAGTCAAAGGTCAGTGAAGAGATGACGG"
  PBM binding z-score: 5.06
- sequence-input: "AATACAGGGTCATCGTAGGTCAGAGTACGCACAG"
  PBM binding z-score: 6.23
- sequence-input: "AATAAAGGGTCATCGTAGGCCAGAGTACGCACAG"
  PBM binding z-score: 5.96
- sequence-input: "GCTGCTAGGTCAACTGATGGTCACCTAAAGCTCG"
  PBM binding z-score: 3.99
- sequence-input: "GCATATAGGTAATACAAGGTCAAAGTCCGATTGT"
  PBM binding z-score: 4.21
- sequence-input: "AGAATGGGGTTATACGTAGATCAGGGAAGAAAGT"
  PBM binding z-score: 5.16
- sequence-input: "CGTCTAAGGTCATAGGAGGTCAGTGAAGACAGAT"
  PBM binding z-score: 6.24
- sequence-input: "ATATGTAGGTTAACTGGGGTCATTCAGACTAGGC"
  PBM binding z-score: 5.96
- sequence-input: "TCGCCTAGGTCATGGGCCAGTATACCACGCGAAC"
  PBM binding z-score: 4.13
- sequence-input: "CTATGTAGGTTACGGGGGTCATTCAGTTTGAAAG"
  PBM binding z-score: 6.13
- sequence-input: "ATCGAAAGGTCCACGAGGTGAGTATACACCGTTT"
  PBM binding z-score: 0.734
- sequence-input: "AGAACGAGGTCACGCTGAGTTGATAGCAGAGTAG"
  PBM binding z-score: 6.34
- sequence-input: "TCTCGGAGGACACAAAGGTCAGAGCTTTCCAGAG"
  PBM binding z-score: 3.86
- sequence-input: "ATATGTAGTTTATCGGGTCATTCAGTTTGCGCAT"
  PBM binding z-score: 3.2
- sequence-input: "GATATAGGGTCAGCTAGAGGCCAGAGTATGGAAA"
  PBM binding z-score: 4.76
- sequence-input: "ATCGAAAGGTCGACGAGGTGAGTAAACACCGTTT"
  PBM binding z-score: 4.51
